- assay-target: Ca2+-activated potassium channel (Gardos channel) of erythrocytes (Homo sapiens, UniProt O15554)
- Construct: endogenous in cells
- Sequence (O15554 whole entry): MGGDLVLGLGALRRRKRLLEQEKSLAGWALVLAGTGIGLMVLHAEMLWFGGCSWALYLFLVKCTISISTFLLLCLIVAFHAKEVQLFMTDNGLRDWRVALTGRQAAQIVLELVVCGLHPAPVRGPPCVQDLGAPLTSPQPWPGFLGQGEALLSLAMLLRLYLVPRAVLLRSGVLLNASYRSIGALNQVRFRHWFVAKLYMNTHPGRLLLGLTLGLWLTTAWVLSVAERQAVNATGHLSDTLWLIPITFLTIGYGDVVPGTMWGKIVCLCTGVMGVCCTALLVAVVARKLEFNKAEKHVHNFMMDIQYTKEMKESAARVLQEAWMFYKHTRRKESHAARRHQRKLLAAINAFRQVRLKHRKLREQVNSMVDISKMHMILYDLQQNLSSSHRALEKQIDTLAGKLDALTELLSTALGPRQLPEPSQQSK
- experimental-details: Gardos channel assay
Let's look at some compounds and their measured IC50.
assay-endpoint: IC50

- compound: "O=C(c1ccccc1)N1Cc2ccccc2C(c2ccccc2)c2ccccc21 (centres unmarked)"
  assay-endpoint: "IC50"
  assay-value: "> 10 µM"
- compound: "COc1ccc2c(c1)CNc1ccccc1C2(c1ccccc1)c1ccc(F)cc1 (centres unmarked)"
  assay-endpoint: "IC50"
  assay-value: "> 10 µM"
- compound: "COc1cccc2c1C(c1ccccc1Cl)c1cc(Cl)ccc1N(C(=O)c1ccc(Cl)cc1)C2 (centres unmarked)"
  assay-endpoint: "IC50"
  assay-value: "> 10 µM"
- compound: "O=C(Oc1ccccc1)N1Cc2ccccc2C(c2ccccc2)c2ccccc21 (centres unmarked)"
  assay-endpoint: "IC50"
  assay-value: "> 10 µM"
- compound: "Clc1ccc2c(c1)C(c1ccccc1)c1cc3ccccc3cc1CN2 (centres unmarked)"
  assay-endpoint: "IC50"
  assay-value: "> 10 µM"
- compound: "CCOC(=O)C(=O)N1Cc2ccccc2C(c2ccccc2)c2ccccc21 (centres unmarked)"
  assay-endpoint: "IC50"
  assay-value: "1.53 to 1.94 µM"
- compound: "COC(=O)N1Cc2ccccc2C(c2ccccc2Cl)c2ccccc21 (centres unmarked)"
  assay-endpoint: "IC50"
  assay-value: "0.085 to 0.093 µM"
- compound: "O=C(O)C(=O)N1Cc2ccccc2C(c2ccccc2)c2ccccc21 (centres unmarked)"
  assay-endpoint: "IC50"
  assay-value: "> 10 µM"
